FYI, the data here is from paper doi:10.1101/108654v1.

As a worked illustration, we turn to GI50 data collected for MCF7.

Here is how some compounds turned out for GI50.
molecule_smiles: COc1cccc2c1C(=O)c1c(O)c3c(c(O)c1C2=O)C[C@@](O)(C(=O)CO)C[C@@H]3O[C@H]1C[C@H](N)[C@H](O)[C@H](C)O1
result: < 100 nM
//
molecule_smiles: Clc1ccc2nc(Nc3c(Cl)cccc3Cl)nc(-c3ccccc3)c2c1
result: 600 nM
//
molecule_smiles: Clc1ccc2nc(Cl)nc(-c3ccccc3Cl)c2c1
result: > 10000 nM

Request: For `COC(=O)Nc1nc2ccc(C(=O)c3cccs3)cc2[nH]1` , what is its reported GI50?
Response: < 100 nM

Request: Record: `O=[N+]([O-])c1ccc(C=NNc2nc(-c3ccccc3)c3cc(Cl)ccc3n2)o1`
Response: > 10000 nM

Request: Field entry: `Clc1ccc2nc(NN=Cc3c(Cl)cccc3Cl)nc(-c3ccccc3)c2c1`
Response: > 10000 nM

---

molecules and their reported CC50 at 48 h
# assay_procedure: in vitro
# conditions: human, mrc5 cells
Write it as a number; the unit µM goes unstated.

These solved cases illustrate the format of a correct answer.
molecule_smiles: Clc1ccc2nc(Nc3c(Cl)cccc3Cl)nc(-c3ccccc3)c2c1
CC50 at 48 h, µM: 141

molecule_smiles: Clc1ccc2nc(Cl)nc(-c3ccccc3Cl)c2c1
CC50 at 48 h, µM: 136

molecule_smiles: O=[N+]([O-])c1ccc(C=NNc2nc(-c3ccccc3)c3cc(Cl)ccc3n2)o1
CC50 at 48 h, µM: 162

Request: # lookup: CC50 at 48 h of `Clc1ccc2nc(NN=Cc3c(Cl)cccc3Cl)nc(-c3ccccc3)c2c1`
Response: 159

Request: Record: `COC(=O)Nc1nc2ccc(C(=O)c3cccs3)cc2[nH]1`
Response: 129

---

# Tested on: HepG2
# Lookup of reported GI50 keyed by entry

molecule_smiles: COc1cccc2c1C(=O)c1c(O)c3c(c(O)c1C2=O)C[C@@](O)(C(=O)CO)C[C@@H]3O[C@H]1C[C@H](N)[C@H](O)[C@H](C)O1
assay_system: HepG2
property_name: GI50
result: < 0.1 µM
//
molecule_smiles: COC(=O)Nc1nc2ccc(C(=O)c3cccs3)cc2[nH]1
assay_system: HepG2
property_name: GI50
result: 7.06 µM
//
molecule_smiles: O=[N+]([O-])c1ccc(C=NNc2nc(-c3ccccc3)c3cc(Cl)ccc3n2)o1
assay_system: HepG2
property_name: GI50
result: 1.35 µM
//
molecule_smiles: Clc1ccc2nc(Cl)nc(-c3ccccc3Cl)c2c1
assay_system: HepG2
property_name: GI50
result: > 10 µM
//
molecule_smiles: Clc1ccc2nc(Nc3c(Cl)cccc3Cl)nc(-c3ccccc3)c2c1
assay_system: HepG2
property_name: GI50
result: > 10 µM

As a next step, examine the compound that follows.
Request: Request the reported GI50 associated with `Clc1ccc2nc(NN=Cc3c(Cl)cccc3Cl)nc(-c3ccccc3)c2c1`
Response: > 10 µM
